target: CDK7 (Homo sapiens, UniProt P50613); construct: purchased Carna Biosciences, Inc; test: CDK7 kinase activity inhibition (ADP-Glo); format: biochemical; details: 10 μM ATP, 2 h at room temperature
Sequence (P50613 whole entry): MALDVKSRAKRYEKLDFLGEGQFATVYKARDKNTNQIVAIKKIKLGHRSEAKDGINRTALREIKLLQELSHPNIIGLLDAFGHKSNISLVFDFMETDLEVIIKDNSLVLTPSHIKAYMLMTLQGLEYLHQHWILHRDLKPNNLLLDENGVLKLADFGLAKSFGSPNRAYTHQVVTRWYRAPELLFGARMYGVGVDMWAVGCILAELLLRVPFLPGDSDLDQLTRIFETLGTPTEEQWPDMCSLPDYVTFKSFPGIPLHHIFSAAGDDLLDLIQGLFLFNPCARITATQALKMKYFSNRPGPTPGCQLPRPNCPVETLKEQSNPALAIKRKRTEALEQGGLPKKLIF
Sequence (P51946 whole entry partner): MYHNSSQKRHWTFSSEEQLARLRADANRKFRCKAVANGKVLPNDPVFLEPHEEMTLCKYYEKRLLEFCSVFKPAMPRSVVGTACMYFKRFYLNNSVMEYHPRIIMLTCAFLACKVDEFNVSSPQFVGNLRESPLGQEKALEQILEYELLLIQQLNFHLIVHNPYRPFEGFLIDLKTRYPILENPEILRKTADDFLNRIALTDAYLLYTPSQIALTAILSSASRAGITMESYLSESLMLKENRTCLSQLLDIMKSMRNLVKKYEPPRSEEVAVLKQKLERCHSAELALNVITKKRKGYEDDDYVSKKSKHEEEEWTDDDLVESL
Sequence (P51948 whole entry partner): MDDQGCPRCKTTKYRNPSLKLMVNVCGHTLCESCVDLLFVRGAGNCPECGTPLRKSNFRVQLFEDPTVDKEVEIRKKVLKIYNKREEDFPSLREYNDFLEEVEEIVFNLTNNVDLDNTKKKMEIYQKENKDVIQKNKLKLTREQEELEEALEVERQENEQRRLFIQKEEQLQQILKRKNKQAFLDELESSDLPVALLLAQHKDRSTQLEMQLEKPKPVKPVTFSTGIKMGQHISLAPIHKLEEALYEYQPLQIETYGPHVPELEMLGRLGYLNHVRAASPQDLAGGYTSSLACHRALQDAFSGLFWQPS
result_type: log10 of IC50 (log10 of the value in nM)

- compound: "COc1cc(F)ccc1-c1cc(Nc2cc(CS(C)(=N)=O)ccn2)ncc1F (stereo not drawn) [BAY1251152, reference compound]"
  log10 of IC50: 3.63
- compound: "NC[C@H]1CCC(F)(F)CN1C(=O)c1nc(Nc2cc(OC(F)(F)F)ccn2)ccc1F"
  log10 of IC50: 2.82
- compound: "Cc1ccc(Nc2cc(C#N)ccn2)nc1C(=O)N1CC(F)(F)CC[C@@H]1CNC(=O)OC(C)(C)C"
  log10 of IC50: 3.85
- compound: "CC(=O)NC[C@H]1CCC(F)(F)CN1C(=O)c1nc(Nc2cc(OC(F)(F)F)ccn2)ccc1C"
  log10 of IC50: 3.41
- compound: "CC(=O)NC[C@H]1CCC(F)(F)CN1C(=O)c1nc(Nc2cc(OC(F)F)ccn2)ccc1C"
  log10 of IC50: 3.64
- compound: "CC(=O)NC[C@H]1CCC(F)(F)CN1C(=O)c1nc(Nc2cc(C#N)ccn2)ccc1C"
  log10 of IC50: 3.29
- compound: "CC(=O)NC[C@H]1CCC(F)(F)CN1C(=O)c1nc(Nc2cc(Cl)ccn2)ccc1C"
  log10 of IC50: 3.94
- compound: "CC(=O)NC[C@H]1CCC(F)(F)CN1C(=O)c1nc(Nc2cc(C)ccn2)ccc1C"
  log10 of IC50: 3.92
- compound: "CC(=O)NC[C@H]1CCC(F)(F)CN1C(=O)c1nc(Nc2cc(C(F)F)ccn2)ccc1C"
  log10 of IC50: 3.66
- compound: "CC(=O)N[C@@H]1CCC[C@H](C(=O)Nc2cc(-c3cnn4c3CC(C)(C)C4)c(Cl)cn2)C1 [AZD4573, reference compound]"
  log10 of IC50: 1.50
- compound: "CC(=O)NC[C@H]1CCC(F)(F)CN1C(=O)c1nc(Nc2cc(-c3cnn4c3CCC4)c(F)cn2)ccc1C"
  log10 of IC50: 3.27
- compound: "CC(=O)NC[C@H]1CCC(F)(F)CN1C(=O)c1nc(Nc2cc([N+](=O)[O-])ccn2)ccc1C"
  log10 of IC50: 3.89
- compound: "COc1cc(Nc2ccc(C)c(C(=O)N3CC(F)(F)CC[C@@H]3CNC(C)=O)n2)ncc1Cl"
  log10 of IC50: 3.99
- compound: "CC(=O)NC[C@H]1CCC(F)(F)CN1C(=O)c1nc(Nc2cc(C(F)(F)F)ccn2)ccc1C"
  log10 of IC50: 3.50
